Details: 568.15 K; Liquid
Readout label: vapor or sublimation pressure (kPa)

Smiles representation	Result
CCCCCCCCCCCCCCCCCCCCCCCCCCCCCC	1.687
CCCCCCCCCCCCCCCCCCCCCCCCCC	5.417
CCCCCCCCCCCCCCCCCCCCC	24.22
CCCCCCCCCCCCCCCCCCCCCCCC	9.668
CCCCCCCCCCCCCCCCCCCCCCC	13.05

a. CCCCCCCCCCCCCCCCCCCCCCCCCCC
b. CCCCCCCCCCCCCCCCCCCCCC
c. CCCCCCCCCCCCCCCCCCCCCCCCC
d. CCCCCCCCCCCCCCCCCCCCCCCCCCCCC
Order the items by recorded vapor or sublimation pressure; the first position goes to the largest value. Reply with the labels, ordered as the question asks.
b, c, a, d

* * *

Details: 418.15 K; Liquid
Readout label: vapor or sublimation pressure (kPa)

The following molecules have reported results that may help.
Molecule	Measurement unit	vapor or sublimation pressure
CCCCCCCCCCCCCCCCCCCCCC [docosane]	kPa	0.032
CCCCCCCCCCCCCCCCCCCCCCCCCCC [heptacosane]	kPa	0.002067
CCCCCCCCCCCCCCCCCCCCCCC [tricosane]	kPa	0.01797

I. CCCCCCCCCCCCCCCCCCCCCCCCCCCC [octacosane]
II. CCCCCCCCCCCCCCCCCCCCCCCCC [pentacosane]
III. CCCCCCCCCCCCCCCCCCCCCCCCCCCCCC [triacontane]
Arrange the 3 molecules from largest to smallest vapor or sublimation pressure. Field: ranking. Enter the labels in the order requested.
II, I, III
(II: 0.005863 kPa, I: 0.001107 kPa, III: 0.0003508 kPa)

a. CCCCCCCCCCCCCCCCCCCCCCCC [tetracosane]
b. CCCCCCCCCCCCCCCCCCCCCCCCCC [hexacosane]
Would you let me know which has the greater vapor or sublimation pressure value, a or b ? Your answer should be the label attached to the chosen record.
a
(a: 0.01022 kPa, b: 0.003393 kPa)

P. CCCCCCCCCCCCCCCCCCCCCCCCCCCCC [nonacosane]
Q. CCCCCCCCCCCCCCCCCCCCC [heneicosane]
Sorting by vapor or sublimation pressure in descending order, would P or Q appear first? In your reply, give the label of the chosen option.
Q
(Q: 0.05774 kPa, P: 0.0006219 kPa)

* * *

Conditions: 538.15 K; Liquid
Readout label: vapor or sublimation pressure (kPa)

Smiles representation	vapor or sublimation pressure, kPa
CCCCCCCCCCCCCCCCCCCCCCCCCC	1.934
CCCCCCCCCCCCCCCCCCCCCCCCC	2.661
CCCCCCCCCCCCCCCCCCCCCCCCCCCCCC	0.5185
CCCCCCCCCCCCCCCCCCCCCCCC	3.705

P. CCCCCCCCCCCCCCCCCCCCCCCCCCCCC
Q. CCCCCCCCCCCCCCCCCCCCCCCCCCC
R. CCCCCCCCCCCCCCCCCCCCC
S. CCCCCCCCCCCCCCCCCCCCCCC
Hi! Can you put these in order of vapor or sublimation pressure, lowest number first? Returns: the labels arranged in the requested order.
P, Q, S, R

1. CCCCCCCCCCCCCCCCCCCCCC
2. CCCCCCCCCCCCCCCCCCCCCCCCCCCC
Lab note: check whether 1 or 2 has the lower measured vapor or sublimation pressure. Choose, then provide that item's label.
2

* * *

Conditions: 508.15 K; Liquid
Readout label: vapor or sublimation pressure (kPa)

Below, 3 molecules whose answers are already recorded.
Smiles representation	Measurement unit	vapor or sublimation pressure
CCCCCCCCCCCCCCCCCCCCCCCCCCCC	kPa	0.276
CCCCCCCCCCCCCCCCCCCCCCCCCC	kPa	0.5797
CCCCCCCCCCCCCCCCCCCCCCCCCCC	kPa	0.4089

I. CCCCCCCCCCCCCCCCCCCCCCCC
II. CCCCCCCCCCCCCCCCCCCCCCCCC
III. CCCCCCCCCCCCCCCCCCCCCCCCCCCCC
Provide the items ranked by increasing vapor or sublimation pressure. List labels; respect the requested ordering.
III, II, I
(III: 0.1897 kPa, II: 0.8322 kPa, I: 1.208 kPa)

I. CCCCCCCCCCCCCCCCCCCCCC
II. CCCCCCCCCCCCCCCCCCCCCCCCCCCCCC
III. CCCCCCCCCCCCCCCCCCCCC
IV. CCCCCCCCCCCCCCCCCCCCCCC
Arrange these 4 molecules in increasing order of vapor or sublimation pressure. # respond with the labels, arranged in the requested order
II, IV, I, III
(II: 0.1301 kPa, IV: 1.763 kPa, I: 2.593 kPa, III: 3.849 kPa)

* * *

Assay: molar enthalpy of vaporization or sublimation
Conditions: 298.15 K; Liquid
Readout label: molar enthalpy (kJ/mol)

Smiles representation	Result
CCCCCCCCCCCCCCCCCCCCCCCCCCCCC	147
CCCCCCCCCCCCCCCCCCCCCC	112
CCCCCCCCCCCCCCCCCCCCCCCCCC	132
CCCCCCCCCCCCCCCCCCCCCCCCC	127
CCCCCCCCCCCCCCCCCCCCCCCCCCCC	142
CCCCCCCCCCCCCCCCCCCCCCCCCCCCCC	152
CCCCCCCCCCCCCCCCCCCCCCCC	122
CCCCCCCCCCCCCCCCCCCCCCC	117
CCCCCCCCCCCCCCCCCCCCCCCCCCC	136
CCCCCCCCCCCCCCCCCCCCC	107

* * *

Details: 388.15 K; Liquid
Readout label: vapor or sublimation pressure (kPa)

Smiles representation	Measurement unit	vapor or sublimation pressure
CCCCCCCCCCCCCCCCCCCCCCCCCCCCC	kPa	3.99e-05
CCCCCCCCCCCCCCCCCCCCCCCCC	kPa	0.0005462
CCCCCCCCCCCCCCCCCCCCCCC	kPa	0.002006
CCCCCCCCCCCCCCCCCCCCC	kPa	0.007785
CCCCCCCCCCCCCCCCCCCCCCCCCCCC	kPa	7.829e-05
CCCCCCCCCCCCCCCCCCCCCCCCCCC	kPa	0.0001636

A. CCCCCCCCCCCCCCCCCCCCCCCCCCCCCC
B. CCCCCCCCCCCCCCCCCCCCCCCC
Identify the entry with the larger vapor or sublimation pressure. Options: A and B Refer to your chosen item by its label in the answer.
B
(B: 0.001041 kPa, A: 2.045e-05 kPa)

A. CCCCCCCCCCCCCCCCCCCCCCCCCC
B. CCCCCCCCCCCCCCCCCCCCCC
Kindly compare A with B and tell me which has the lower vapor or sublimation pressure figure. API: response body contains the label of the selected item.
A
(A: 0.0002888 kPa, B: 0.003922 kPa)

* * *

Settings: 298.15 K; Liquid
Readout label: vapor or sublimation pressure (kPa)

Some compounds with known vapor or sublimation pressure results, for comparison:
Compound	vapor or sublimation pressure (kPa)
CCCCCCCCCCCCCCCCCCCCC [heneicosane]	6.69e-07
CCCCCCCCCCCCCCCCCCCCCCCC [tetracosane]	2.373e-08
CCCCCCCCCCCCCCCCCCCCCCCCCCC [heptacosane]	1.127e-09
CCCCCCCCCCCCCCCCCCCCCCCCC [pentacosane]	8.145e-09

a. CCCCCCCCCCCCCCCCCCCCCCCCCCCC [octacosane]
b. CCCCCCCCCCCCCCCCCCCCCCC [tricosane]
Larger number for vapor or sublimation pressure: a , or b ? Pick one and reply with its label.
b

A. CCCCCCCCCCCCCCCCCCCCCCCCCCCCCC [triacontane]
B. CCCCCCCCCCCCCCCCCCCCCCCCCC [hexacosane]
Hey, between A and B which has a smaller measured vapor or sublimation pressure? Which one? Tell me its label.
A

a. CCCCCCCCCCCCCCCCCCCCCC [docosane]
b. CCCCCCCCCCCCCCCCCCCCCCCCCCCCC [nonacosane]
Name the one with the greater vapor or sublimation pressure value, either a or b as given. Please identify the chosen entry by its label.
a
(a: 2.148e-07 kPa, b: 1.018e-10 kPa)

* * *

Details: 328.15 K; Liquid
Readout label: vapor or sublimation pressure (kPa)

Reference set, count: 5
Smiles representation	Result
CCCCCCCCCCCCCCCCCCCCCCCCCCCC	5.263e-08
CCCCCCCCCCCCCCCCCCCCCCCCCCC	1.502e-07
CCCCCCCCCCCCCCCCCCCCCCC	4.801e-06
CCCCCCCCCCCCCCCCCCCCCCCCCC	3.247e-07
CCCCCCCCCCCCCCCCCCCCCCCCCCCCC	2.044e-08

a. CCCCCCCCCCCCCCCCCCCCCCCC
b. CCCCCCCCCCCCCCCCCCCCCCCCC
c. CCCCCCCCCCCCCCCCCCCCCCCCCCCCCC
hey, can you rank those compounds up there by vapor or sublimation pressure? biggest number first please Output spec: labels arranged per the requested ranking.
a, b, c

P. CCCCCCCCCCCCCCCCCCCCCC
Q. CCCCCCCCCCCCCCCCCCCCC
// pick larger vapor or sublimation pressure from pair: P vs Q # respond with the chosen item's label
Q
(Q: 3.15e-05 kPa, P: 1.218e-05 kPa)
